Biological target: T1, hAMY3R (human, UniProt P30988)
T1 sequence 1: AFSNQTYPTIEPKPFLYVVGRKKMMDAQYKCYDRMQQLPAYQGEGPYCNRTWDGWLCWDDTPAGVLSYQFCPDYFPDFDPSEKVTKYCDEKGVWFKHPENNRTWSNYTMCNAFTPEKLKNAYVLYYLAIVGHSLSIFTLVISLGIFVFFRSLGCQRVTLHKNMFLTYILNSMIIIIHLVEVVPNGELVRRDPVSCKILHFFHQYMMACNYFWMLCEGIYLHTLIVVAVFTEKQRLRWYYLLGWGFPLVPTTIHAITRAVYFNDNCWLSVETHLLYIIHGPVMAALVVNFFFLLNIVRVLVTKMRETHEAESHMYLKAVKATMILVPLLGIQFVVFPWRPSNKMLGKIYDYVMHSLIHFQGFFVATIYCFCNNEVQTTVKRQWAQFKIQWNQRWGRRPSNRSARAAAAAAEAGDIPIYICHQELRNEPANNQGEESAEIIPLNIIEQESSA
T1 sequence 2: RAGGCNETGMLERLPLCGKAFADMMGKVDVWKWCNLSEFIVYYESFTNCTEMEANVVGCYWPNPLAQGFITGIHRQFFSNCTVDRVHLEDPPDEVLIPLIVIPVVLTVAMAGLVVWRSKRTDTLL
Experiment: cell-based or functional assay
Bridge positions count the residues as written; N and C are the ends. Square brackets hold non-standard residues; d marks the D form. Ends that are not written are not given here. Hyp = O=C(O)[C@@H]1C[C@@H](O)CN1
Catalogue of hAMY3R EC50 (cAMP) values
# value in nM; strip the unit string

Answered examples (2):
// field: hAMY3R EC50 (cAMP); key: KCNTATCATQRLANFLVHSSNNFGAIAPSTKVGSNGY [SEQ ID NO: 93] ; value = 0.016

// field: hAMY3R EC50 (cAMP); key: GCRTGTCTVQWLAHQIYQFTDKDKDNVAPRTKVGPQG[Hyp]-NH2 (disulfide 2-7 (inferred); ends not checked) [SEQ ID NO: 349] ; value = 0.046

More entries:
// field: hAMY3R EC50 (cAMP); key: KCNFATCTVQRLAHQIYQFTDKDKDNVAPRTKVGSNGY [SEQ ID NO: 361] ; value = 0.006

// field: hAMY3R EC50 (cAMP); key: GCRTGTCTVQRLAHQIYQFTDKDKDNVAPRTNISPNGY [SEQ ID NO: 188] ; value = 0.094

// field: hAMY3R EC50 (cAMP); key: GCRFGTCTVQRLANFLYQFTDKDKDNVAPRTNVGPQGY [SEQ ID NO: 16] ; value = 0.008

// field: hAMY3R EC50 (cAMP); key: KCNTATCTVQWLAHQIYQFTDKDKDNVAPTNVGSNG[Hyp]-NH2 (disulfide 2-7 (inferred); ends not checked) [SEQ ID NO: 319] ; value = 0.018

// field: hAMY3R EC50 (cAMP); key: GCRFGTCTVQRLAHQIYQFTDKDKDNVAPRTNVSPQGY [SEQ ID NO: 116] ; value = 0.024

// field: hAMY3R EC50 (cAMP); key: GCRTGTCTVQRLAHQIYQFTDKFKDNVAPRSKISPQW[Hyp]-NH2 (disulfide 2-7 (inferred); ends not checked) [SEQ ID NO: 185] ; value = 0.09

// field: hAMY3R EC50 (cAMP); key: GCRTGTCTVQRLAHQIWQFTDKFKDNVAPRSKISPQT[Hyp]-NH2 (disulfide 2-7 (inferred); ends not checked) [SEQ ID NO: 213] ; value = 0.153
